target: B7-H3 on Calu-6 cells (human) (UniProt Q5ZPR3); test: 177Lu-labelled peptide on Calu-6 cells, % cell associated fraction; B = 25<%<=50
Sequence (Q5ZPR3 29-534): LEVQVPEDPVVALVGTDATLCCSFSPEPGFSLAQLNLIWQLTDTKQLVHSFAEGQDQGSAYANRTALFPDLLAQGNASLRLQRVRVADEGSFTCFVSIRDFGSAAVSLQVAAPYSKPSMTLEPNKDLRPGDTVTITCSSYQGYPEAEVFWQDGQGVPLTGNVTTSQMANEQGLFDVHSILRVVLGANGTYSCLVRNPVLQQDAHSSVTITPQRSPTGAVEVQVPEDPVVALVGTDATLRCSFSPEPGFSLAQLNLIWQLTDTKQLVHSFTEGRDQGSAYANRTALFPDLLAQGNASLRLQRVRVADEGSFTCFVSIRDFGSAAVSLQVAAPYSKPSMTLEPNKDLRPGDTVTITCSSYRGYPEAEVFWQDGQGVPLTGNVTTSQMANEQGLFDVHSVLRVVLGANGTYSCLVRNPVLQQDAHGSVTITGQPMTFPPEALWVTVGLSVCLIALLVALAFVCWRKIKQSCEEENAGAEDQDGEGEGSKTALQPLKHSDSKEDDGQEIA
Positions of bridges follow the written chain, without caps; N, C: chain ends. Non-standard residues stand in square brackets, D forms with d. *: point of attachment. DOTA = O=C(O)CN1CCN(CC(=O)O)CCN(CC(=O)*)CCN(CC(=O)O)CC1; Trp(5-F) = N[C@@H](Cc1c[nH]c2ccc(F)cc12)C(=O)O; Ala(4-THP) = N[C@@H](CC1CCOCC1)C(=O)O; Val(3-OH) = CC(C)(O)[C@H](N)C(=O)O; hCha = N[C@@H](CCC1CCCCC1)C(=O)O; Tle = CC(C)(C)[C@H](N)C(=O)O; hLeu = CC(C)CC[C@H](N)C(=O)O; Ms = CS(=O)(=O)*
property: % cell associated fraction

Item Ac-[hCha]YC[Tle]GK[Ala(4-THP)]DVYC[Trp(5-F)]F[Val(3-OH)][dK](DOTA)-OH (disulfide 3-11 (inferred)) [Cpd 368] : provide % cell associated fraction
25 to 50%

Could you now consider this next binder?
Tell us which % cell associated fraction value is on record for Ms-[hLeu]YC[Tle]G[PipAla][Ala(4-THP)]DVYCXF[hydroxyVal][dK](DOTA)-OH (disulfide 3-11 (inferred); not fully specified (residue 12); printed as MeSO2-hLeu-Y-C-Tbg-G-PipAla-ThpA-D-V-Y-C-5FW-F-hydroxyVal-dLys(DOTA)-COOH, disulfide) [Cpd 437]
25 to 50%
